- procedure summary: clinical
- assay conditions: human, plasma, intravenous, Clearance, Group 2 (N = 29), median
assay metric: clearance (mL/min)
State just the number; it will be interpreted in mL/min.

Supply clearance value. Item: C/C=C1\NC(=O)[C@H]2CSSCC/C=C/[C@H](CC(=O)N[C@H](C(C)C)C(=O)N2)OC(=O)[C@H](C(C)C)NC1=O
232

###

- procedure summary: clinical
- assay conditions: human, plasma, intravenous, T1/2, half-life of the terminal phase, Group 2 (N = 29), median
assay metric: half-life (h)
State just the number; it will be interpreted in h.

Supply half-life value. Item: C/C=C1\NC(=O)[C@H]2CSSCC/C=C/[C@H](CC(=O)N[C@H](C(C)C)C(=O)N2)OC(=O)[C@H](C(C)C)NC1=O
3.8
